pKd: −log10 of the molar value.
Compiled from multiple publications: pKd readings for Receptor-type tyrosine-protein kinase FLT3 (Homo sapiens, UniProt P36888).
value_kind: pKd

Some compounds with known pKd results, for comparison:
INSERT INTO assay_data (cpd_smiles, value_kind, data_value) VALUES
  ('CCN1CCN(C(=O)c2ccc3c(c2)sc2nc(-c4ccc(NC(=O)Nc5cc(C(C)(C)C)on5)cc4)cn23)CC1', 'pKd', 9.01),
  ('CCN1CCN(C(=O)CCc2ccc3c(c2)sc2nc(-c4ccc(NC(=O)Nc5cc(C(C)(C)C)on5)cc4)cn23)CC1', 'pKd', 8.70),
  ('CN1CCN(c2ccc3c(c2)sc2nc(-c4ccc(NC(=O)Nc5cc(C(C)(C)C)on5)cc4)cn23)CC1', 'pKd', 8.92),
  ('CCS(=O)(=O)c1cccc(-c2cc(C(=O)NC3CCN(C)CC3)c(C)c3[nH]c4ncc(C)cc4c23)c1', 'pKd', 6.26);

(P) CC(C)(C)c1cc(NC(=O)Nc2ccc(C(=O)Nc3ccncc3)cc2)no1
(Q) CCN1CCN(Cc2ccc3c(c2)sc2nc(-c4ccc(NC(=O)Nc5cc(C(C)(C)C)on5)cc4)cn23)CC1
(R) CCCS(=O)(=O)N1CCC(c2c[nH]c3c(C(N)=O)cc(-c4ccccc4)cc23)CC1
(S) CC(C)(C)c1cc(NC(=O)Nc2ccc(-c3cn4c(n3)sc3ccc(OCCN5CCOCC5)cc34)cc2)no1
Ask: Order the items by recorded pKd; the first position goes to the largest value. // list labels; follow requested order
Result: Q, S, P, R
(Q: 8.96, S: 8.64, P: 7.42, R: 5.90)

* * *

Compiled from multiple publications: pKd readings for Receptor-type tyrosine-protein kinase FLT3 (Homo sapiens, UniProt P36888).
- target: Receptor-type tyrosine-protein kinase FLT3 (Homo sapiens, UniProt P36888)
- Sequence (P36888 whole entry): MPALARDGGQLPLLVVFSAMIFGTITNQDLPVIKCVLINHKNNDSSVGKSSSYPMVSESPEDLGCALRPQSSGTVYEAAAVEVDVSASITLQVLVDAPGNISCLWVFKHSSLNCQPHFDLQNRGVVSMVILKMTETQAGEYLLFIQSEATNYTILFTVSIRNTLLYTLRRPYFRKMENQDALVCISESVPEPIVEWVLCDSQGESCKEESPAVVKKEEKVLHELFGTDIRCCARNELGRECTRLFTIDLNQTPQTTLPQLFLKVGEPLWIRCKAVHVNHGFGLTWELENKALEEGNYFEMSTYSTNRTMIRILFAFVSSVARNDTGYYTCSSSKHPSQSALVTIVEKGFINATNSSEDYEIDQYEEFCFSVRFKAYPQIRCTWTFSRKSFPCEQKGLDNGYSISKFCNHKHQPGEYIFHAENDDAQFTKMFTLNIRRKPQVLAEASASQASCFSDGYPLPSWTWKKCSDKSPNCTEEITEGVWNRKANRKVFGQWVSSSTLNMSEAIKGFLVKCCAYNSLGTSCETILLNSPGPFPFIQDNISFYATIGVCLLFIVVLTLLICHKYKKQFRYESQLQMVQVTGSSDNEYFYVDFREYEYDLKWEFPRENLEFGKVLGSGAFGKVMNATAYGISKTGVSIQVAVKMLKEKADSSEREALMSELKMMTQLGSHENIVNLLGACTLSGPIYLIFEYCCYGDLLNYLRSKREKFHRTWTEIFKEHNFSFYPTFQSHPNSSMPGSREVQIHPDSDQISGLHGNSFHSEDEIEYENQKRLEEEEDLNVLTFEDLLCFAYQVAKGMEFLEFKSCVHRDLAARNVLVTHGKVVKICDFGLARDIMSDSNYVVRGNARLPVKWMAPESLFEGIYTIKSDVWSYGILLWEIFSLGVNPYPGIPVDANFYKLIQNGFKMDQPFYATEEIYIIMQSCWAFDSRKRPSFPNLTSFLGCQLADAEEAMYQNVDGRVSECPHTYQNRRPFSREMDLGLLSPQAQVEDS
pKd: −log10 of the molar value.
value_kind: pKd

INSERT INTO assay_data (cpd_smiles, data_value) VALUES
  ('NC(=O)c1ccc(Nc2cc(-c3ccc(F)cc3)n[nH]2)cc1', 7.52);

(a) C=CCn1cc(-c2ccc(NC(=O)Nc3cc(C(C)(C)C)on3)cc2)c2c(N)ncnc21
(b) CC(C)(C)c1cc(NC(=O)Nc2ccc(NC(=O)c3cccc(O)n3)cc2)no1
Ask: I'd appreciate it if you could identify which of a and b has the greater pKd. Pick one; state its label.
Result: b
(b: 8.60, a: 8.36)

(P) CC(C)(C)c1cc(NC(=O)Nc2ccc(-c3cn4c(n3)sc3cccc(OCCN5CCOCC5)c34)cc2)no1
(Q) Cc1cn(-c2cccc(NC(=O)c3ccc(C)c(Nc4nccc(-c5cccnc5)n4)c3)c2)cn1
Ask: Select the item whose pKd value is smaller, choosing between P and Q . In your reply, give the label of the chosen option.
Result: Q
